Biological target: human 5-HT2A receptor (Homo sapiens (Human), UniProt P28223)
Sequence (P28223 whole entry): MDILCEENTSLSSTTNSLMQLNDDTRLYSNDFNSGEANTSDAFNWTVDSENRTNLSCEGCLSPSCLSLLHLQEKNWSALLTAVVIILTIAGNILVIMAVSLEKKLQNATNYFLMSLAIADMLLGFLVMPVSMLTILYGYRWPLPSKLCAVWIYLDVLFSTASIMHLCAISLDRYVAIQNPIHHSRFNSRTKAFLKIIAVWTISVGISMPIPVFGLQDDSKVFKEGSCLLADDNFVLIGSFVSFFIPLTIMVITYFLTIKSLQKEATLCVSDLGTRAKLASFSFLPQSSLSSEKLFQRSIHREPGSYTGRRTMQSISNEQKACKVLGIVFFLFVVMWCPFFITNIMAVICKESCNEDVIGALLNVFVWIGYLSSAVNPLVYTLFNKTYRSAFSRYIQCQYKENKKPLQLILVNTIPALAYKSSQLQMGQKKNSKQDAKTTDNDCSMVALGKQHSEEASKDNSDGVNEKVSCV
Assay: Test 3: antagonist activity for human 5-HT2A receptor (aequorin luminescence, CHO-K1 cells)
Assay type: cell-based
Conditions: CHO-K1 cells, 1 nmol/L 5-HT
MEASUREMENT KIND: IC50 (nM)
Write the value in nM as a bare number.

Exam item: Could you tell me which IC50 is on file for Cc1noc2c1C(=O)N(CCN1CCN(c3noc4ccccc34)CC1)CC2 [Example 32] ?
Marked response: 95

Exam item: Could you tell me which IC50 is on file for Cn1ncc2c1C(=O)N(CCN1CCN(c3nsc4ccccc34)CC1)CCC2 [Example 47] ?
Marked response: 4.96

Exam item: Could you tell me which IC50 is on file for Cc1cc2c(cn1)C(=O)N(CCN1CCN(c3nsc4ccccc34)CC1)CC2 [Example 108] ?
Marked response: 7.5

Exam item: Could you tell me which IC50 is on file for O=C1c2ncccc2CCN1CCN1CCC(c2nsc3ccccc23)CC1 [Example 26] ?
Marked response: 4.49

Exam item: Could you tell me which IC50 is on file for Cc1nc2c(o1)CCCN(CCN1CCN(c3nsc4ccccc34)CC1)C2=O [Example 52] ?
Marked response: 12

Exam item: Could you tell me which IC50 is on file for Cn1cnc2c1C(=O)N(CCN1CCN(c3nsc4ccccc34)CC1)CC2 [Example 56] ?
Marked response: 6

Exam item: Could you tell me which IC50 is on file for O=C1c2ncccc2CCC1CCN1CCN(c2nsc3ccccc23)CC1 (stereo not shown) [Example 25] ?
Marked response: 5.54

Exam item: Could you tell me which IC50 is on file for Cn1cc2c(n1)C(=O)N(CCN1CCN(c3nsc4ccccc34)CC1)CCC2 [Example 49] ?
Marked response: 7.02

Exam item: Could you tell me which IC50 is on file for Cc1noc2ccn(CCN3CCN(c4nsc5ccccc45)CC3)c(=O)c12 [Example 53] ?
Marked response: 8.03

Exam item: Could you tell me which IC50 is on file for Cc1noc2c1C(=O)N(CCN1CCN(c3nsc4ccccc34)CC1)CC2 [Example 34] ?
Marked response: 8

Exam item: Could you tell me which IC50 is on file for Cc1noc2c1C(=O)N(CCN1CCC(c3noc4ccccc34)CC1)CCC2 [Example 38] ?
Marked response: 24

Exam item: Could you tell me which IC50 is on file for Cn1cnc2c1CCN(CCN1CCN(c3nsc4ccccc34)CC1)C2=O [Example 54] ?
Marked response: 13

Exam item: Could you tell me which IC50 is on file for Cc1nc2c(o1)C(=O)N(CCN1CCN(c3nsc4ccccc34)CC1)CCC2 [Example 46] ?
Marked response: 52

Exam item: Could you tell me which IC50 is on file for Cn1ncc2c1C(=O)N(CCN1CCC(c3noc4ccccc34)CC1)CC2 [Example 96] ?
Marked response: 20

Exam item: Could you tell me which IC50 is on file for O=C1c2cnccc2CCN1CCN1CCN(c2nsc3ccccc23)CC1 [Example 18] ?
Marked response: 36

Exam item: Could you tell me which IC50 is on file for O=c1c2cccnc2ccn1CCN1CCN(c2nsc3ccccc23)CC1 [Example 10] ?
Marked response: 0.71

Exam item: Could you tell me which IC50 is on file for O=C1c2cnc(C(F)(F)F)cc2CCN1CCN1CCN(c2nsc3ccccc23)CC1 [Example 110] ?
Marked response: 42.4

Exam item: Could you tell me which IC50 is on file for CC1CN(CCN2CCC(c3noc4ccccc34)CC2)C(=O)c2ccn(C)c21 (stereo not shown) [Example 82] ?
Marked response: 46

Exam item: Could you tell me which IC50 is on file for CC1CN(CCN2CCN(c3noc4ccccc34)CC2)C(=O)c2ccn(C)c21 (stereo not shown) [Example 83] ?
Marked response: 49

Exam item: Could you tell me which IC50 is on file for Cn1cnc2c1CCCN(CCN1CCC(c3noc4ccccc34)CC1)C2=O [Example 101] ?
Marked response: 46

Exam item: Could you tell me which IC50 is on file for O=C1c2ncccc2CCN1CCN1CCC(c2noc3ccccc23)CC1 [Example 22] ?
Marked response: 94

Exam item: Could you tell me which IC50 is on file for O=C1c2cncnc2CCN1CCN1CCC(c2noc3ccccc23)CC1 [Example 57] ?
Marked response: 76.7

Exam item: Could you tell me which IC50 is on file for Cn1ncc2c1CCC(CCN1CCC(c3noc4ccccc34)CC1)C2=O (stereo not shown) [Example 28] ?
Marked response: 9.8

Exam item: Could you tell me which IC50 is on file for O=C1c2ncccc2CCN1CCN1CCN(c2nsc3ccccc23)CC1 [Example 7] ?
Marked response: 7.83

Exam item: Could you tell me which IC50 is on file for O=c1c2cnccc2ccn1CCN1CCC(c2noc3ccccc23)CC1 [Example 13] ?
Marked response: 71

Exam item: Could you tell me which IC50 is on file for O=C1c2ncccc2CCN1CCN1CCC(c2noc3cc(F)ccc23)CC1 [Example 4] ?
Marked response: 9.95

Exam item: Could you tell me which IC50 is on file for Cn1cc2c(n1)CCN(CCN1CCN(c3noc4ccccc34)CC1)C2=O [Example 81] ?
Marked response: 83

Exam item: Could you tell me which IC50 is on file for Cn1ncc2c1CCCN(CCN1CCC(c3noc4ccccc34)CC1)C2=O [Example 43] ?
Marked response: 6.52

Exam item: Could you tell me which IC50 is on file for Cc1nc2c(o1)C(=O)N(CCN1CCC(c3noc4ccccc34)CC1)CC2 [Example 35] ?
Marked response: 74

Exam item: Could you tell me which IC50 is on file for Cn1ccc2c1CCN(CCN1CCC(c3noc4ccccc34)CC1)C2=O [Example 60] ?
Marked response: 3.91

Exam item: Could you tell me which IC50 is on file for Cn1ncc2c1CCCN(CCN1CCN(c3noc4ccccc34)CC1)C2=O [Example 80] ?
Marked response: 55

Exam item: Could you tell me which IC50 is on file for O=C1c2ncccc2CCC1CCN1CCC(c2noc3ccccc23)CC1 (stereo not shown) [Example 24] ?
Marked response: 33

Exam item: Could you tell me which IC50 is on file for Cc1noc2c1C(=O)N(CCN1CCN(c3nsc4ccccc34)CC1)CCC2 [Example 40] ?
Marked response: 8.7

Exam item: Could you tell me which IC50 is on file for Cn1cc2c(n1)CCN(CCN1CCN(c3nsc4ccccc34)CC1)C2=O [Example 36] ?
Marked response: 6
